- TESTED_ON: T1, hCD137 (FXa digested) (human, UniProt Q07011 24-186)
- T1 construct: Factor Xa digestion and Protein A removed the Fc; also called human CD137 extracellular domain
- PROTOCOL_TEXT: SPR, 100 uM ATP
Recorded binding amount for the following binders

BINDER	binding amount (RU)
dBBAT042-P253 (antibody, human IgG1, lambda, V domains shown) VH: EVQLVESGGDLVKPGGGLRLSCAASGFTFSSHTMNWVRQAPGKGLEWISSISSRSNYKSYADSVKGRFTISRDNAKNSLYLQMNSLRAEDTAVYYCARYGHKNMHNWVFDYWGQGTLVTVSS VL: QSALTQPPSASGSPGQTVTISCTGTSSDVGFYNYVSWYQQHPGKAPKLMIYEVSKRPSGVPDRFSGSKSGNTASLTVSGLQAEDEADYFCSTYRYDQNVAFGGGTKLTVLG	4.3
dBBAT091-P253 (antibody, human IgG1, lambda, V domains shown) VH: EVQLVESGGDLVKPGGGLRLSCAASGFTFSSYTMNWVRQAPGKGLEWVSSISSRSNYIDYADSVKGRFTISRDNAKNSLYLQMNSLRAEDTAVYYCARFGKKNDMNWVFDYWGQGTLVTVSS VL: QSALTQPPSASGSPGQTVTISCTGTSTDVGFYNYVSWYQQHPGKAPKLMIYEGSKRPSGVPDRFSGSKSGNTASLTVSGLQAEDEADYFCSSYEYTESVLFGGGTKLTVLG	3
dBBAT112-P253 (antibody, human IgG1, lambda, V domains shown) VH: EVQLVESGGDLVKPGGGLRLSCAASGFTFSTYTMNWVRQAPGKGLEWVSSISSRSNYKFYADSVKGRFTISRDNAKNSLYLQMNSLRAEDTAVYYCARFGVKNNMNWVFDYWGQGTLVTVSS VL: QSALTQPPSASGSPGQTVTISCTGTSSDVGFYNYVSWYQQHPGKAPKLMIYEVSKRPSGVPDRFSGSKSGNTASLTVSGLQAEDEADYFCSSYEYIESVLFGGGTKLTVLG	6.3

Every entry's value here was drawn from patent US20230272099A1.
